Measured values drawn from patent US20200347130A1 for this set.

assayed.target: T1, CD96 extracellular region with His tag (CD96-His) (human, UniProt P40200 22-519)
T1 construct: also called CD96-ECD-His; Bio-CD96-His (biotin-labelled form)
T1 sequence: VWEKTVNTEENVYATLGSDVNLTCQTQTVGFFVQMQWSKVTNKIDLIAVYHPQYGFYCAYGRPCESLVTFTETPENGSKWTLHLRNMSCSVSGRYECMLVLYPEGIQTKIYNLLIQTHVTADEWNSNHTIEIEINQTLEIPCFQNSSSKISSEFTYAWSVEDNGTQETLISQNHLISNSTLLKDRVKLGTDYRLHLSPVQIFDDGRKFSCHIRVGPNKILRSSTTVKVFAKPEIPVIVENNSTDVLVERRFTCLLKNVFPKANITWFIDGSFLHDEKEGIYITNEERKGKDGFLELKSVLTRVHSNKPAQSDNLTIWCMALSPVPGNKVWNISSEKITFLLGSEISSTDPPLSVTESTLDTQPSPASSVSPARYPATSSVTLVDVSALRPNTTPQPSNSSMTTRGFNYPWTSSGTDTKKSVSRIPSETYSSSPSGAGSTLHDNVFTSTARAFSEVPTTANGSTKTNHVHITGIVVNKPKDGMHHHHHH
procedure.summary: SPR (Biacore), antibody captured, CD96-ECD-His as mobile phase
measure: Kd (nM)
// note: answer is a bare numeric in nM

// query For h1718-007 (antibody, V domains shown, Only variable regions are tied to this name) VH: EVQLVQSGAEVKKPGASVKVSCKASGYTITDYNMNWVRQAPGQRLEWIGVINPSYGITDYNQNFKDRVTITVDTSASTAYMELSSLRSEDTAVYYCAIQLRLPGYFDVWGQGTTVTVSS VL: DIQMTQSPSSLSASVGDRVTITCKASQDINNYLNWFQQKPGKAPKTLIYRANRLVDGVPSRFSGSGSGQDYTLTISSLQPEDFATYYCLKYDEFPYTFGGGTKVEIK , what is its reported Kd?
// result 3.88
